Assay: physchem
Settings: buffer, pH 7.4
assayEndpoint: solubility

CC(C)(C)CCn1nc(C2CC2)c(O)c(C2=Nc3ccc(NS(C)(=O)=O)cc3S(=O)(=O)N2)c1=O	> 50 µM
CC(C)CCn1nc(C(C)(C)C)c(O)c(C2=NS(=O)(=O)c3cc(NS(C)(=O)=O)ccc3N2)c1=O	> 100 µM
CC(C)CCn1nc(-c2cccs2)c(O)c(C2=NS(=O)(=O)c3cc(N(C)S(C)(=O)=O)ccc3N2)c1=O	> 100 µM

Pending compound:
Asked: Recorded solubility for CS(=O)(=O)Nc1ccc2c(c1)S(=O)(=O)N=C(c1c(O)c(C3=CCCC3)nn(CCC3CC3)c1=O)N2 , please?
Given back: > 100 µM

###

Experiment: Cmax in cynomolgus monkey at 1 mg/kg, po
Format: ADME, organism-based, Macaca fascicularis
Design: dose 1 mg/kg, route oral
Conditions: in vivo
assayEndpoint: Cmax (µg/mL)

CC(C)CCn1nc(-c2cccs2)c(O)c(C2=NS(=O)(=O)c3cc(N(C)S(C)(=O)=O)ccc3N2)c1=O	0.011

A: CC(C)CCn1nc(-c2cccs2)c(O)c(C2=Nc3ccc(NS(C)(=O)=O)cc3S(=O)(=O)N2)c1=O
B: CC(C)(C)CCn1nc(CC2CCCC2)c(O)c(C2=Nc3ccc(NS(C)(=O)=O)cc3S(=O)(=O)N2)c1=O
C: CC(C)CCn1nc(C(C)(C)C)c(O)c(C2=NS(=O)(=O)c3cc(NS(C)(=O)=O)ccc3N2)c1=O
D: Cc1ccc(-c2nn(Cc3ccccc3)c(=O)c(C3=Nc4ccccc4S(=O)(=O)N3)c2O)s1
E: CC(C)CCn1nc(CC2CCCC2)c(O)c(C2=NS(=O)(=O)c3cc(NS(C)(=O)=O)ccc3N2)c1=O
Asked: Ascending by Cmax, please. A complete answer lists every label in the requested sequence.
Given back: A, B, E, C, D

###

System: Cynomolgus monkey
Experiment: AUC (0 to infinity) in cynomolgus monkey at 1 mg/kg, po
Assay type: ADME, organism-based, Macaca fascicularis, Plasma
Set-up: time infinity, dose 1 mg/kg, route oral
Details: in vivo
assayEndpoint: AUC (ng·h/mL)

I: CC(C)CCn1nc(C(C)(C)C)c(O)c(C2=NS(=O)(=O)c3cc(NS(C)(=O)=O)ccc3N2)c1=O
II: CC(C)CCn1nc(CC2CCCC2)c(O)c(C2=NS(=O)(=O)c3cc(NS(C)(=O)=O)ccc3N2)c1=O
III: CC(C)CCn1nc(-c2cccs2)c(O)c(C2=Nc3ccc(NS(C)(=O)=O)cc3S(=O)(=O)N2)c1=O
IV: CC(C)(C)CCn1nc(CC2CCCC2)c(O)c(C2=Nc3ccc(NS(C)(=O)=O)cc3S(=O)(=O)N2)c1=O
Asked: Put the items above in order of decreasing AUC. A complete answer lists every label in the requested sequence.
Given back: I, II, IV, III

P: CC(C)CCn1nc(-c2cccs2)c(O)c(C2=NS(=O)(=O)c3cc(N(C)S(C)(=O)=O)ccc3N2)c1=O
Q: Cc1ccc(-c2nn(Cc3ccccc3)c(=O)c(C3=Nc4ccccc4S(=O)(=O)N3)c2O)s1
Asked: Smaller AUC value, P vs Q ? Lab note: record the label of whichever item you select.
Given back: P
(P: 72 ng·h/mL, Q: 3650 ng·h/mL)

###

Assay: Fraction absorbed in cynomolgus monkey at 1 mg/kg, po
Assay type: ADME, organism-based, Macaca fascicularis
Design: dose 1 mg/kg, route oral
Settings: in vivo, read-out: Fabs
assayEndpoint: Fa (%)

# count of solved cases: 4
CC(C)(C)CCn1nc(CC(C)(C)C)c(O)c(C2=NS(=O)(=O)c3cc(NS(C)(=O)=O)ccc3N2)c1=O	4
CC(C)CCn1nc(-c2cccs2)c(O)c(C2=Nc3ccc(NS(C)(=O)=O)cc3S(=O)(=O)N2)c1=O	4
CC(C)CCn1nc(CC2CCCC2)c(O)c(C2=NS(=O)(=O)c3cc(NS(C)(=O)=O)ccc3N2)c1=O	18
CC(C)CCn1nc(CC2CC2)c(O)c(C2=NS(=O)(=O)c3cc(NS(C)(=O)=O)ccc3N2)c1=O	9

1: CC(C)(C)CCn1nc(CC2CCCC2)c(O)c(C2=Nc3ccc(NS(C)(=O)=O)cc3S(=O)(=O)N2)c1=O
2: CC(C)CCn1nc(CC(C)(C)C)c(O)c(C2=NS(=O)(=O)c3cc(NS(C)(=O)=O)ccc3N2)c1=O
3: CN(c1ccc2c(c1)S(=O)(=O)N=C(c1c(O)c(-c3cccs3)nn(CCC(C)(C)C)c1=O)N2)S(C)(=O)=O
4: CC(C)CCn1nc(-c2cccs2)c(O)c(C2=NS(=O)(=O)c3cc(N(C)S(C)(=O)=O)ccc3N2)c1=O
Asked: Ascending by Fa, please. A complete answer lists every label in the requested sequence.
Given back: 3, 2, 1, 4
(3: 5%, 2: 8%, 1: 18%, 4: 33%)

###

Assay: Oral bioavailability in cynomolgus monkey at 1 mg/kg
Type: ADME, organism-based, Macaca fascicularis
Conditions: in vivo
assayEndpoint: bioavailability (%)

# count of solved cases: 2
CS(=O)(=O)Nc1ccc2c(c1)S(=O)(=O)N=C(c1c(O)c(C3=CCCC3)nn(CCC3CC3)c1=O)N2	4
CC(C)(C)CCn1nc(C2=CCCC2)c(O)c(C2=NS(=O)(=O)c3cc(NS(C)(=O)=O)ccc3N2)c1=O	4

A: CN(c1ccc2c(c1)S(=O)(=O)N=C(c1c(O)c(-c3cccs3)nn(CCC(C)(C)C)c1=O)N2)S(C)(=O)=O
B: CC(C)(C)CCn1nc(CC2CCCC2)c(O)c(C2=Nc3ccc(NS(C)(=O)=O)cc3S(=O)(=O)N2)c1=O
Asked: I need your help: which of the pair A , B has higher bioavailability? Lab note: record the label of whichever item you select.
Given back: B

###

Experiment: Fraction absorbed in cynomolgus monkey at 1 mg/kg, po
Assay type: ADME, organism-based, Macaca fascicularis
Parameters: dose 1 mg/kg, route oral
Details: in vivo, read-out: Fabs
assayEndpoint: Fa (%)

CC(C)(C)Cc1nn(CCC2CC2)c(=O)c(C2=Nc3ccc(NS(C)(=O)=O)cc3S(=O)(=O)N2)c1O	7
CC(C)(C)CCn1nc(C2=CCCC2)c(O)c(C2=NS(=O)(=O)c3cc(NS(C)(=O)=O)ccc3N2)c1=O	7

I: CS(=O)(=O)Nc1ccc2c(c1)S(=O)(=O)N=C(c1c(O)c(C3=CCCC3)nn(CCC3CC3)c1=O)N2
II: CC(C)=Cc1nn(CCC(C)(C)C)c(=O)c(C2=NS(=O)(=O)c3cc(NS(C)(=O)=O)ccc3N2)c1O
Asked: I need your help: which of the pair I , II has higher Fa? Lab note: record the label of whichever item you select.
Given back: I

###

Test system: Cynomolgus monkey
Assay: AUC (0 to infinity) in cynomolgus monkey at 1 mg/kg, iv
Assay type: ADME, organism-based, Macaca fascicularis, Plasma
Set-up: time infinity, dose 1 mg/kg, route intravenous
Settings: in vivo
assayEndpoint: AUC (ng·h/mL)

# count of solved cases: 4
Cc1ccc(-c2nn(Cc3ccccc3)c(=O)c(C3=Nc4ccccc4S(=O)(=O)N3)c2O)s1	10900
CC(C)CCn1nc(CC2CCCC2)c(O)c(C2=NS(=O)(=O)c3cc(NS(C)(=O)=O)ccc3N2)c1=O	2540
CC(C)CCn1nc(-c2cccs2)c(O)c(C2=Nc3ccc(NS(C)(=O)=O)cc3S(=O)(=O)N2)c1=O	1330
CC(C)(C)CCn1nc(CC2CCCC2)c(O)c(C2=Nc3ccc(NS(C)(=O)=O)cc3S(=O)(=O)N2)c1=O	851

a: CC(C)CCn1nc(-c2cccs2)c(O)c(C2=NS(=O)(=O)c3cc(N(C)S(C)(=O)=O)ccc3N2)c1=O
b: CC(C)CCn1nc(C(C)(C)C)c(O)c(C2=NS(=O)(=O)c3cc(NS(C)(=O)=O)ccc3N2)c1=O
Asked: Smaller AUC value, a vs b ? Lab note: record the label of whichever item you select.
Given back: a

###

Assay: Fraction absorbed in cynomolgus monkey at 1 mg/kg, po
Type: ADME, organism-based, Macaca fascicularis
Set-up: dose 1 mg/kg, route oral
Settings: in vivo, read-out: Fabs
assayEndpoint: Fa (%)

CC(C)(C)CCn1nc(C2CC2)c(O)c(C2=Nc3ccc(NS(C)(=O)=O)cc3S(=O)(=O)N2)c1=O	5

P: CC(C)CCn1nc(C(C)(C)C)c(O)c(C2=NS(=O)(=O)c3cc(NS(C)(=O)=O)ccc3N2)c1=O
Q: Cc1ccc(-c2nn(Cc3ccccc3)c(=O)c(C3=Nc4ccccc4S(=O)(=O)N3)c2O)s1
Asked: Smaller Fa value, P vs Q ? Lab note: record the label of whichever item you select.
Given back: P
(P: 17%, Q: 36%)

###

Experiment: Tmax in cynomolgus monkey at 1 mg/kg, po
Type: ADME, organism-based, Macaca fascicularis
Design: dose 1 mg/kg, route oral
Conditions: in vivo
assayEndpoint: Tmax (h)

Cc1ccc(-c2nn(Cc3ccccc3)c(=O)c(C3=Nc4ccccc4S(=O)(=O)N3)c2O)s1	2
CC(C)CCn1nc(-c2cccs2)c(O)c(C2=Nc3ccc(NS(C)(=O)=O)cc3S(=O)(=O)N2)c1=O	6.3
CC(C)CCn1nc(CC2CCCC2)c(O)c(C2=NS(=O)(=O)c3cc(NS(C)(=O)=O)ccc3N2)c1=O	1.3
CC(C)(C)CCn1nc(CC2CCCC2)c(O)c(C2=Nc3ccc(NS(C)(=O)=O)cc3S(=O)(=O)N2)c1=O	6

1: CC(C)CCn1nc(-c2cccs2)c(O)c(C2=NS(=O)(=O)c3cc(N(C)S(C)(=O)=O)ccc3N2)c1=O
2: CC(C)CCn1nc(C(C)(C)C)c(O)c(C2=NS(=O)(=O)c3cc(NS(C)(=O)=O)ccc3N2)c1=O
Asked: Smaller Tmax value, 1 vs 2 ? Lab note: record the label of whichever item you select.
Given back: 2
(2: 1.5 h, 1: 6 h)
